Origin of measurements: PubChem BioAssay (NCI)

Readings of growth inhibition for the listed compounds
# Experiment notes: NCI Yeast Anticancer Drug Screen. Data for the rad18 strain (AID 177)
# Condition label: S. cerevisiae rad18 mutant growth inhibition; at 3.7 µM; active compounds read high
Compounds without any hit were thinned out: in the full panel of roughly 79,000, 15% have a hit.
Give your result in % as a bare value.

Consider the following illustrative entries.
CN=C(N)N/N=C(\C)c1ccc2oc3ccc(/C(C)=N/NC(N)=NC)cc3c2c1 = -13
Nc1ccc(S(=O)(=O)Nc2ccc(Nc3c4ccccc4nc4ccccc34)cc2)cc1 = 11
CCC(NC(C)c1ccccc1)C(=O)c1ccc(OCc2ccccc2)c(OCc2ccccc2)c1 (stereo not given) = -4
O=Nc1ccc(Nc2ccccc2)cc1 = -24
O=C1C=CC(=O)N1c1ccc2c(c1)OCO2 = 58
N#CSC1CCCCNC1=O (stereo not given) = 33

The compound identified as COC(=O)c1oc([N+](=O)[O-])c(Cl)c1Cl registered its growth inhibition at 92

The compound identified as CNc1ccc(Cc2c[nH]c3ccccc23)cc1 registered its growth inhibition at -64

The compound identified as CCC(=O)Oc1ccc(/C=N/NC(N)=S)nc1 registered its growth inhibition at 1

The compound identified as Oc1ccc(C=Nc2ccccc2O)cc1 registered its growth inhibition at 78
